Experiment: Cytotoxicity assay (MTT)
Assay type: cell-based
Settings: African green monkey (Cercopithecus aethiops), Vero cells (CCL-81); 24 hours of treatment; confidence interval in brackets; read-out: Vero cells (CCL-81) CC50 (CI)
Description: Vero cells (CCL-81) isolated from the kidney of the African green monkey Cercopithecus aethiops were purchased from ATCC® (Washington DC, USA). […] After 4 or 24 h of treatment, the cells were washed and cell viability was assessed using MTT (3-(4,5-Dimethylthiazol-2-yl)-2,5-Diphenyltetrazolium Bromide) assay (2 mg/mL). […] The absorbance was measured at 570 nm using an ELISA plate reader (Biotek Model EL-800, VT, USA). […]
Property: CC50 at 24 h; scope: individual compounds
Provide only the numeric value, understood in µM.

Input: Given the compound CCCCCCCCCCCCC/C=C1\CC(CO)OC1=O (centres unmarked) [Majoranolide, majoranolide] , write its reported CC50 at 24 h.
Output: 166

Further cases:
Input: Given the compound O=C(Cn1ccnc1[N+](=O)[O-])NCc1ccccc1 [Benznidazole, benznidazole, reference compound] , write its reported CC50 at 24 h.
Output: 1140

====

Property: CC50 at 4 h; scope: individual molecules
assay: Cytotoxicity assay (MTT); format: cell-based; details: African green monkey (Cercopithecus aethiops), Vero cells (CCL-81); 4 h of treatment; read-out: Vero cells (CCL-81) CC50 - 4h (CI)
Provide only the numeric value, understood in µM.

Input: Given the molecule "C=C1OC(=O)/C(=C/CCCCCCCCCCCCC)[C@@H]1O" , write its reported CC50 at 4 h.
Output: 371

Okay, now this molecule:
Input: Given the molecule CCCCCCCCCCCCC/C=C1\CC(CO)OC1=O (stereo not drawn) [Majoranolide, majoranolide] , write its reported CC50 at 4 h.
Output: 558
